These measurements were taken from PubChem BioAssay.

test: optical density shifts of acrAB sulA E. coli – strain DRC41, OD650, 48 h, E. coli filamentation inducer project, primary screen (AID 1152); conditions: higher = more signal, called active from +8 up or from −8 down;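 further: E. coli MC1000 strain DRC41 lacking acrAB efflux pump and sulA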

{"columns": ["compound", "z-score"],
 "data": [
  ["COc1ccc([Si](C)(C)[C@H]2[C@H](CCO)O[C@@]3(C(=O)N(Cc4cccc(N5C(=O)c6cccc7cccc5c67)c4)c4ccccc43)[C@@H]2C)cc1", 0.0084],
  ["C=CC[C@]1(C(=O)O)N=C(c2ccc(OCCCO)cc2)O[C@H]1c1ccccc1CN=[N+]=[N-]", 0.0533],
  ["C=C(C)[C@@H]1CC=C(C(O)C2C=CC3C(=O)N(Cc4ccccc4)C(=O)C3N2n2cnnc2)CC1 (stereo partly drawn)", -1.05],
  ["O=C1C2C=CC(C(O)C3CC=CCC3)N(n3cnnc3)C2C(=O)N1Cc1ccccc1 (stereo not drawn)", -1.37],
  ["COc1cc(NN2C(C(O)c3ccccc3)C=CC3C(=O)N(c4ccccc4)C(=O)C32)cc(OC)c1OC (stereo not drawn)", -0.26],
  ["C=CC[C@@]1(C(=O)NCc2ccccc2)N=C(c2ccc(OCCCO)cc2)O[C@@H]1c1ccccc1CN=[N+]=[N-]", -1.52],
  ["Cc1ccc(S[C@]2(C(=O)NCC(F)(F)F)CC(=O)N(C3Cc4ccccc4C3)[C@@H]2c2ccc(CO)cc2I)cc1", 1.1],
  ["COC(=O)[C@@]1(Cc2ccc(OC)cc2)[C@H]2c3cc(C(=O)N(C)C)n(Cc4ccc(OC)c(OC)c4)c3C[C@H]2CN1C(=O)c1ccccc1", -1.86]
]}

---

composite z-score values for the compounds below.
molecular target: Torsin-1A (Homo sapiens) (UniProt O14656); assay: TOR1A wild-type binding on microarray – cell lysate, small-molecule microarray, lysate, 635/667 nm, primary screen (AID 1149); settings: COS7 hTOR1A-WT lysate, 635 nm fluorescence, higher = more signal
Sequence (O14656 whole entry, looked up): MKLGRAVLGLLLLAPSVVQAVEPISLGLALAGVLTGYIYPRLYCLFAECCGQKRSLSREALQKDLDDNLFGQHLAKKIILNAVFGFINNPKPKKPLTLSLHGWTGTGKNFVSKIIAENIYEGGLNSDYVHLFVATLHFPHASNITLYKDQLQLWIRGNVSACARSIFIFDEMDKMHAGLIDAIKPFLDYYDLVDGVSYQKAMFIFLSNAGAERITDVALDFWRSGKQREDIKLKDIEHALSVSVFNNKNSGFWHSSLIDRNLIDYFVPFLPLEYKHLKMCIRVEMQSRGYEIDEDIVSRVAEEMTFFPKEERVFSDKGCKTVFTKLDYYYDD
parameterMeasured: composite z-score

{"columns": ["smilesInput", "result"],
 "data": [
  ["COc1ccc(C#Cc2ccc3c(c2)[C@]2(C(=O)N3)[C@H](C(=O)N3CCN(c4ncccn4)CC3)[C@H]3C(=O)O[C@H](c4ccccc4)[C@H](c4ccccc4)N3[C@@H]2c2ccc(O)cc2)cc1", -0.0852],
  ["C=C(COC)C(=O)CC[C@@H](OC(=O)c1ccccc1-c1ccccc1C(=O)O)c1ccc(CO)o1", 1.67],
  ["NC(=O)NCC#Cc1ccc2c(c1)[C@]1(C(=O)N2)[C@H](c2ccc(O)cc2)N2[C@H](c3ccccc3)[C@H](c3ccccc3)OC(=O)[C@H]2[C@@H]1C(=O)N1CCN(c2ncccn2)CC1", -0.219],
  ["[N-]=[N+]=NCc1ccccc1C[C@]1(C(=O)N2CCOCC2)N=C(c2ccc(OCCCO)cc2)O[C@H]1c1ccccc1", 0.0039],
  ["CCCC[C@H]1OB(O)C[C@H]2C1=C(COc1ccccc1)C[C@H]1C(=O)N(Cc3ccccc3)C(=O)[C@H]12", -0.518],
  ["O=C1O[C@@H](c2ccccc2)[C@@H](c2ccccc2)N2[C@@H](c3ccc(O)cc3)[C@]3(C(=O)Nc4ccccc43)[C@@H](C(=O)N3CCCCCCC3)[C@H]12", 1.91]
]}

---

experiment: ATP-based viability of Huh7 replicon cells – cell-based, CellTiter-Glo luminescence, basal, 48 h, cytotoxicity control for HCV replication inhibitor project, primary screen (AID 1143); conditions: higher = more signal, called active from +8 up or from −8 down;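 further: Huh7 hepatoma cells carrying a hepatitis C replication reporter with no stimulus; test concentration not given here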
Activity calls are given as the source filed them.
# reported z-score; entries follow

{"columns": ["compound", "z-score"],
 "data": [
  ["O=C1O[C@@H](c2ccccc2)[C@@H](c2ccccc2)N2[C@@H](c3ccc(O)cc3)[C@]3(C(=O)Nc4ccc(C#CCCO)cc43)[C@@H](C(=O)N3CCCCCCC3)[C@H]12", "-0.915 (inactive)"],
  ["O=C1OCCC/C=C\\[C@H]2OC34C=CCN(Cn5nnc6ccccc65)C(=O)[C@H]3N(CCCO)C(=O)[C@@H]4C12 (stereo partly drawn)", "0.464 (inactive)"],
  ["CC(C)(C)OC(=O)CC[C@@]1(C(=O)N2CCOCC2)N=C(c2ccc(OCCCO)cc2)O[C@@H]1c1ccccc1N=[N+]=[N-]", "-1.61 (inactive)"],
  ["CN1C(=O)C2C=CC(C(O)C(C)(C)C)N(Nc3ccccc3)C2C1=O (stereo not drawn)", "1.07 (inactive)"],
  ["COC(=O)[C@@]1(Cc2ccc(F)cc2)[C@H]2c3cc(C(=O)N(C)C)n(Cc4ccccn4)c3C[C@H]2CN1C(=O)c1ccccc1", "-1.17 (inactive)"],
  ["CCOC(=O)C1=CC[C@@H](c2ccccc2)N(S(=O)(=O)c2ccc(C)cc2)[C@H]1c1ccc(C#N)cc1", "-2.07 (inactive)"],
  ["COc1ccc(C(=O)Nc2cccc(CN3C(=O)[C@@]4(O[C@@H](CCn5cc([C@H](O)c6ccccc6)nn5)[C@H]([Si](C)(C)c5ccc(OC)cc5)[C@H]4C)c4ccccc43)c2)cc1", "-6.59 (inactive)"],
  ["Cc1ccccc1/C=C/C=O", "-0.042 (inactive)"],
  ["O=C1C[C@@](C(=O)O)(c2ccc([N+](=O)[O-])cc2)[C@@H](c2ccc(CO)cc2I)N1CC12CC3CC(CC(C3)C1)C2", "-5.39 (inactive)"],
  ["COCCOC(=O)N1C(=O)[C@@]2(c3cc(C#CCCO)ccc31)[C@H](c1ccc(O)cc1)N1[C@H](c3ccccc3)[C@H](c3ccccc3)OC(=O)[C@H]1[C@@H]2C(=O)N1CCCCCCC1", "-0.883 (inactive)"],
  ["COc1ccc([Si](C)(C)[C@@H]2[C@@H](CCn3cc([C@H](O)c4ccccc4)nn3)O[C@]3(C(=O)N(C)c4ccccc43)[C@H]2C)cc1", "-3.85 (inactive)"],
  ["COCCCNC(=O)[C@]1(Cc2ccccc2N=[N+]=[N-])N=C(c2ccc(OCCCO)cc2)O[C@@H]1c1ccccc1CN=[N+]=[N-]", "-5.15 (inactive)"],
  ["C=C[C@H](C)[C@H](O)c1ccc(OCCO)cc1", "-1.45 (inactive)"],
  ["COc1ccc([Si](C)(C)[C@@H]2[C@@H](CCO)O[C@]3(C(=O)N(Cc4cccc(N5CCCCC5=O)c4)c4ccccc43)[C@H]2C)cc1", "-7.9 (inactive)"],
  ["CCCCCN1CC=CC23O[C@@H]4C=CCCOC(=O)C4[C@H]2C(=O)N(CCCO)[C@@H]3C1=O (stereo partly drawn)", "-2.45 (inactive)"],
  ["O=C1O[C@H](c2ccccc2)[C@H](c2ccccc2)N2[C@H]1[C@@H](C(=O)N1CCCCCCC1)[C@]1(C(=O)Nc3ccc(C#CC4=CCCCC4)cc31)[C@H]2c1ccc(O)cc1", "-5.14 (inactive)"],
  ["COC(=O)c1c2oc(c1C(=O)OC)C(=O)N[C@H](Cc1ccccc1)Cn1nncc1C1(CCCCC1)NC(=O)N[C@H](CO)CC2", "-0.11 (inactive)"],
  ["C=CC[C@]1(C(=O)O)N=C(c2ccc(OCCCO)cc2)O[C@H]1c1ccccc1CN=[N+]=[N-]", "0.101 (inactive)"],
  ["COc1ccc(C#Cc2ccc3c(c2)[C@]2(C(=O)N3)[C@H](c3ccc(OCCO)cc3)N3[C@H](c4ccccc4)[C@H](c4ccccc4)OC(=O)[C@H]3[C@@H]2C(=O)Nc2nc3ccccc3s2)cc1", "-2.92 (inactive)"],
  ["C=CCN1Cc2ccccc2C[C@@]2(COC(c3ccc(OCCCO)cc3)=N2)C1=O", "-2.99 (inactive)"],
  ["COCC1=C([C@H](O)CCc2ccccc2)[C@H](CO)[C@@H]2C(=O)N(Cc3ccccc3)C(=O)[C@@H]2C1", "-0.979 (inactive)"],
  ["COc1ccc(C#Cc2ccc3c(c2)[C@]2(C(=O)N3)[C@H](C(=O)N3CCc4cc(OC)c(OC)cc4C3)[C@H]3C(=O)O[C@H](c4ccccc4)[C@H](c4ccccc4)N3[C@@H]2c2ccc(OCCO)cc2)cc1", "-0.763 (inactive)"],
  ["CCCCN1CC=CC23O[C@@H]4C=CCCOC(=O)C4[C@H]2C(=O)N(CCCO)[C@@H]3C1=O (stereo partly drawn)", "-2.05 (inactive)"],
  ["C=CCN1C(=O)[C@@]2(O[C@@H](CCO)[C@H]([Si](C)(C)c3ccc(OC)cc3)[C@H]2C)c2cc(NC(C)=O)ccc21", "-4.72 (inactive)"],
  ["C[n+]1ccc2ccc(O)cc2c1", "-0.289 (inactive)"],
  ["CN(C)CCCCCCNC(=O)[C@@H]1C[C@@H]2C(=O)N[C@@H](Cc3ccccc3)C(=O)N2[C@@H]1c1cccc(OCCO)c1", "0.59 (inactive)"],
  ["CC(=O)NCCCC[C@@H]1NC(=O)[C@@H]2C[C@H](C(=O)NCc3ccc(F)cc3)[C@H](c3ccc(O)cc3)N2C1=O", "-0.395 (inactive)"],
  ["CCOC(=O)C[C@H]1[C@H](OC(=O)c2ccc(C(=O)c3ccccc3)cc2)[C@@H](NC(=O)c2ccc3ccccc3n2)c2cc(OCCCO)ccc2N1C(=O)c1ccc2ccccc2n1", "0.0729 (inactive)"]
]}
